# credit: ChEMBL document CHEMBL1201862

System: SK-MEL-28
Test Name: NCI tumour cell line growth inhibition, 48 h
The source made the active and inactive calls. Rule as the data show it: active = GI50 up to about 1.1 µM and inactive = higher.
Measurement Type: GI50

Worked examples follow.
Need GI50, item COCCNC1CCC2(SCCS2)c2[nH]c3ccccc3c21 (stereo not given)
26.3 µM (inactive)

Need GI50, item Cc1ccc(NCCCN2CCN(CCCNc3ccc(C)c4sc5ccccc5c(=O)c34)CC2)c2c(=O)c3ccccc3sc12
30.5 µM (inactive)

Need GI50, item COC(=O)C(=O)Cc1nc2ccccc2s1
> 100 µM (inactive)

Go through the items and report each one's GI50.
1. O=C1CCCCCCCCCCC1CN1CCCCC1 (stereo not given)
2. C/C1=C\[C@H](C)C[C@H](C)OC(=O)C[C@H](c2ccc(O)cc2)NC(=O)[C@H](Cc2ccc(O)c(Br)c2)N(C)C(=O)[C@H](C)NC(=O)[C@@H](C)C1
3. CC1=NN(C(=O)CC(=O)Nc2ccc(C)cc2)C(=O)C1/N=N/c1ccc(C(=O)O)cc1 (stereo not given)
4. NC(Cc1ccccc1)C(=O)N[C@H]1c2ccsc2/C(=N/O)[C@H]1O (stereo not given in full)
5. COc1ccc(-c2c3ccccc3c(-c3ccc(OCCCCCBr)cc3)c3ccccc23)cc1
6. O=C1CC(c2ccccc2Cl)C2(C(=O)NC(=O)NC2=O)C(c2ccccc2Cl)C1 (stereo not given)
7. N#Cc1ccc(Nc2nc3[nH]cnc3c(=O)[nH]2)cc1

1: 41.6 µM (inactive); 2: > 25 µM (inactive); 3: > 100 µM (inactive); 4: > 100 µM (inactive); 5: > 100 µM (inactive); 6: > 100 µM (inactive); 7: > 100 µM (inactive)

----------
System: HT-29
Test Name: NCI tumour cell line growth inhibition, 48 h
Activity calls are given as the source filed them. Cut-off read from the data, not from the text of the source: active = GI50 up to about 1.1 µM and inactive = higher.
Consider the following compounds; for each one, report its GI50.

Worked examples follow.
Need GI50, item COc1cc(OC)c2c(=O)c3cccc(C)c3n(C)c2c1
27.9 µM (inactive)

Need GI50, item FC(F)(F)c1cc(C2SCc3nc4ccccc4n32)cc(C(F)(F)F)c1 (stereo unspecified)
3.46 µM (inactive)

Need GI50, item Nc1nc2c(ncn2C2CCC(CO)O2)c(=O)n1C(=O)c1ccccc1 (stereo unspecified)
> 100 µM (inactive)

Need GI50, item CCCCCCCCCCCCCCCCSS(C)(=O)=O
25.2 µM (inactive)

Need GI50, item Cc1ccc(S(=O)(=O)NC(C)C(=O)O)cc1 (stereo unspecified)
> 100 µM (inactive)

Next, consider the following compound.
Need GI50, item CCCCCCCCCCCCCCCC(=O)OC1C(O)C(CO)OC(OC)C1NC(=O)N(CCCl)N=O (stereo unspecified)
12.8 µM (inactive)

----------
Tested on: A498
Test Name: NCI tumour cell line growth inhibition, 48 h
Activity calls are given as the source filed them. Cut-off read from the data, not from the text of the source: active = GI50 up to about 1.1 µM and inactive = higher.
Permitted responses: active, inactive

Take a look at these entries with their results.
Dear all, I need the recorded test outcome for NS(=O)(=O)C1CCCCC1C(=O)NNC(=O)C(=O)Nc1nnc(S)[nH]1 (stereo not drawn) , thank you.
inactive

Dear all, I need the recorded test outcome for CN(C)CCNc1nc2c(no[n+]2[O-])c2ccccc12.[O-][Cl+3]([O-])([O-])O , thank you.
inactive

Dear all, I need the recorded test outcome for O=[PH](O)c1cccs1 , thank you.
inactive

Continuing:
Dear all, I need the recorded test outcome for C#CCOCn1cnc2c(Sc3c([N+](=O)[O-])ncn3C)ncnc21 , thank you.
inactive

Dear all, I need the recorded test outcome for COCCNC1CCC2(SCCS2)c2[nH]c3ccccc3c21 (stereo not drawn) , thank you.
inactive

Dear all, I need the recorded test outcome for Oc1ccc(/C=C/c2cccc(/C=C/c3ccc(O)c(O)c3)n2)cc1O , thank you.
inactive

Dear all, I need the recorded test outcome for CS(=O)(=O)OCCN1CCC2(CC1)SSC1(CCN(CCOS(C)(=O)=O)CC1)S2 , thank you.
active

Dear all, I need the recorded test outcome for COC(=O)C1CC(C=[N+](C)C)=C(SC)N1 (stereo not drawn) , thank you.
inactive
